System: A498 renal
Assay: NCI tumour cell line growth inhibition, 48 h
measurement.kind: GI50

Worked examples follow.
{"columns": ["structure.smiles", "target.entity", "GI50"],
 "data": [
  ["Cn1cc(C2=C(c3cn(CCN)c4ccccc34)C(=O)NC2=O)c2ccccc21", "A498 renal", "7.79 µM"],
  ["CSc1nc2sc3cc(Cl)ccc3n2c(=N)c1C#N", "A498 renal", "29.6 µM"],
  ["COc1cc(-c2cc(-c3nc4ccc(Cl)cc4[nH]3)[nH]n2)cc(OC)c1OC", "A498 renal", "2.1 µM"]
]}

The reported A498 renal GI50 of `COC1=CC(c2ccc[nH]2)=N/C1=C\c1[nH]c(C)c(C(=O)CCCCC(=O)Nc2ccccc2)c1C` is 5.92 µM

The measured GI50 that `COc1ccccc1CNCCCN1C(=O)c2ccc3c4c(ccc(c24)C1=O)C(=O)N(CCCNCCCN)C3=O` showed for A498 renal is 0.342 µM
